# target_desc: UniProt P21462
# assay_text: Biased agonist activity at human FPR1 expressed in FlpIn-CHO cells assessed as stimulation of ERK1/2 phosphorylation measured after 7 mins by Alphascreen assay
# Assay type: cell-based
# protocol_conditions: read-out: pEC50 (converted)
metric_name: EC50

The examples below pair each entry with its known result.
Cc1cc(Cc2ccc(F)cc2)c(=O)n(CC(=O)Nc2ccc(Br)cc2[N+](=O)[O-])n1 ... > 100 µM
COc1ccccc1Cc1cc(C)nn(CC(=O)Nc2cccc(C#N)c2)c1=O ... > 100 µM
COc1ccccc1Cc1cc(C)nn(CC(=O)Nc2c(F)cc(Cl)cc2F)c1=O ... > 100 µM

Prompt: What does the data say about its EC50? Entry: COc1cccc(Cc2cc(C)nn(C(C)C(=O)Nc3ccccc3F)c2=O)c1 (stereo unspecified)
Completion: > 100 µM

Prompt: Value lookup for EC50; key = COc1ccccc1Cc1cc(C)nn(C(C(=O)Nc2ccc(Cl)cc2)C(C)C)c1=O (stereo unspecified)
Completion: 2.82 µM

Prompt: Given CCCCC(C(=O)Nc1ccc(Cl)cc1)n1nc(C(F)(F)F)cc(Cc2ccccc2OC)c1=O (stereo unspecified) , state its recorded EC50.
Completion: > 100 µM

----------
# assay_text: Kinetic solubility of the compound at pH 2
# Assay type: physicochemical
# protocol_conditions: buffer, read-out: Kinetic_solubility
Reported solubility kinetic values follow for various compounds

CCCCC(C(=O)Nc1ccc(Cl)cc1)n1nc(C)cc(Cc2ccccc2OC)c1=O (configuration not stated) ... < 0.78 µg/mL

Kindly consider the entry below.
Prompt: # query: solubility kinetic of entry COc1cccc(Cc2cc(C)nn(C(C)C(=O)Nc3ccc(Cl)cc3)c2=O)c1 (configuration not stated)
Completion: < 1.6 µg/mL

----------
# assay_text: Lipophilicity, log P of the compound by chromatographic method
# Type: physicochemical
metric_name: logP

COc1cccc(Cc2cc(C)nn(C(C)C(=O)Nc3ccc(Cl)cc3)c2=O)c1 (configuration not stated) ... 4
CCCCC(C(=O)Nc1ccc(Cl)cc1)n1nc(C)cc(Cc2ccccc2OC)c1=O (configuration not stated) ... 5.2

----------
# target_desc: fMet-Leu-Phe receptor (Homo sapiens)
# Sequence (P21462 whole entry): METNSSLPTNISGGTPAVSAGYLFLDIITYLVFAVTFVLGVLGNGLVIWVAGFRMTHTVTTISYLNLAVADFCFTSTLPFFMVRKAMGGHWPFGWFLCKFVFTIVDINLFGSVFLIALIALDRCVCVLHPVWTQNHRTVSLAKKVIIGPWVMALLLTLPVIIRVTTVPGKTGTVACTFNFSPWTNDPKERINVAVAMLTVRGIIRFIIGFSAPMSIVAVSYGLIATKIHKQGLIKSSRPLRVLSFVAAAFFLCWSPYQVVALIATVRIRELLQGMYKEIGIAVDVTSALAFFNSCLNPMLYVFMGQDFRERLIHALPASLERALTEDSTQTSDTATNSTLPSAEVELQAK
# assay_text: Biased agonist activity at human FPR1 expressed in FlpIn-CHO cells assessed as stimulation of ERK1/2 phosphorylation measured after 7 mins by Alphascreen assay
# Type: cell-based
# protocol_conditions: read-out: pEC50 (converted)
metric_name: EC50 (nM)

I = COc1cccc(OC)c1Cc1cc(C)nn(CC(=O)Nc2ccc(Cl)cc2)c1=O
II = CCCCC(C(=O)Nc1ccc(Br)cc1)n1nc(C)cc(Cc2cccc(OC)c2)c1=O (stereo not given)
Prompt: Given the listed items, does I or II have the lesser reported EC50? Label of pick, please.
Completion: II

----------
# target_desc: fMet-Leu-Phe receptor (Homo sapiens, UniProt P21462)
# assay_text: Biased agonist activity at human FPR1 expressed in FlpIn-CHO cells assessed as intracellular calcium mobilization by Fluo-4-AM dye based fluorescence assay
# Assay type: functional, cell-based
metric_name: pEC50
In textbook form, pEC50 equals minus log to base ten of the concentration in mol/L.

Prompt: Can you look up pEC50 on fMet-Leu-Phe receptor (Homo sapiens, UniProt P21462) for CCCCC(C(=O)Nc1ccc(Cl)cc1)n1nc(C)cc(Cc2ccccc2OC)c1=O (stereo unspecified) ?
Completion: 6.05

----------
# assay_text: Kinetic solubility of the compound at pH 6.5
# Type: physicochemical
# protocol_conditions: buffer, read-out: Kinetic_solubility
metric_name: solubility kinetic

CCCCC(C(=O)Nc1ccc(Cl)cc1)n1nc(C)cc(Cc2ccccc2OC)c1=O (configuration not stated) ... < 0.78 µg/mL

Attention now shifts to the item below.
Prompt: Name the recorded solubility kinetic for COc1cccc(Cc2cc(C)nn(C(C)C(=O)Nc3ccc(Cl)cc3)c2=O)c1 (configuration not stated) .
Completion: < 1.6 µg/mL

----------
# target_desc: fMet-Leu-Phe receptor (Homo sapiens)
# assay_text: Biased agonist activity at human FPR1 expressed in FlpIn-CHO cells assessed as stimulation of ERK1/2 phosphorylation measured after 7 mins by Alphascreen assay
# Type: cell-based
# protocol_conditions: read-out: pEC50 (converted)
metric_name: EC50 (nM)

COc1cccc(Cc2cc(C)nn(CC(=O)Nc3ccc(Cl)cc3)c2=O)c1OC ... 170

1 = CCCCC(C(=O)Nc1ccc(Cl)cc1)n1nc(C)cc(Cc2cccc(OC)c2OC)c1=O (stereo not given)
2 = COc1ccccc1Cc1cc(C)nn(C(C)C(=O)Nc2ccc(Cl)cc2)c1=O (stereo not given)
3 = COc1cccc(Cc2cc(C)nn(C(C)C(=O)Nc3ccc(Cl)cc3)c2=O)c1OC (stereo not given)
Prompt: Rank the 3 compounds: largest EC50 first, smallest last. Write the labels, ordered according to the request.
Completion: 2, 3, 1

----------
Below is a list of entries, each paired with its recorded EC50 value.
# target_desc: fMet-Leu-Phe receptor (Homo sapiens, UniProt P21462)
# assay_text: Biased agonist activity at human FPR1 expressed in FlpIn-CHO cells assessed as intracellular calcium mobilization by Fluo-4-AM dye based fluorescence assay
# Type: functional, cell-based
# protocol_conditions: read-out: pEC50 (converted)

CCCCC(C(=O)Nc1ccc(Br)cc1)n1nc(C)cc(Cc2cccc(OC)c2)c1=O (stereo not given) ... 11.5 µM
COc1cccc(Cc2cc(C)nn(C(C)C(=O)Nc3ccccc3Cl)c2=O)c1 (stereo not given) ... > 100 µM
COc1ccccc1Cc1cc(C)nn(CC(=O)Nc2ccc(Cl)cc2F)c1=O ... > 100 µM
CCCCC(C(=O)Nc1ccc(Cl)cc1)n1nc(C)cc(Cc2cccc(OC)c2OC)c1=O (stereo not given) ... 0.055 µM
COc1ccccc1Cc1cc(C)nn(CC(=O)Nc2ccccc2C#N)c1=O ... > 100 µM

Prompt: Item under review: COc1cccc(Cc2cc(C)nn(C(C)C(=O)Nc3cccc(F)c3)c2=O)c1 (stereo not given) . Reported EC50?
Completion: > 100 µM

Prompt: Recorded EC50 for COc1cccc(Cc2cc(C)nn(C(C)C(=O)Nc3ccc(Cl)cc3)c2=O)c1 (stereo not given) , please?
Completion: 6.17 to 25.1 µM

Prompt: Given the entry CCCCC(C(=O)Nc1ccc(Cl)cc1)n1nc(C)cc(Cc2cccc(OC)c2)c1=O (stereo not given) , report its measured EC50.
Completion: 5.25 µM

Prompt: Suppose we examine the molecule CCCCC(C(=O)Nc1ccc(Br)cc1)n1nc(C)cc(Cc2cccc(OC)c2OC)c1=O (stereo not given) ; what EC50 value has been reported?
Completion: 0.00646 µM

Prompt: What value of measured EC50 is listed for `CCc1ccc(NC(=O)Cn2nc(C)cc(Cc3ccccc3OC)c2=O)cc1` ?
Completion: > 100 µM

Prompt: Quick one: EC50 for CCC(C(=O)Nc1ccc(Cl)cc1)n1nc(C)cc(Cc2ccccc2OC)c1=O (stereo not given) ?
Completion: > 100 µM

----------
# target_desc: UniProt:P21462
# assay_text: Biased agonist activity at human FPR1 expressed in FlpIn-CHO cells assessed as intracellular calcium mobilization by Fluo-4-AM dye based fluorescence assay
# Type: functional, cell-based
# protocol_conditions: read-out: pEC50 (converted)
metric_name: EC50

COc1ccccc1Cc1cc(C)nn(CC(=O)Nc2ccc(OC(F)(F)F)cc2)c1=O ... > 100 µM

Prompt: Suppose we examine the compound `COc1cccc(Cc2cc(C)nn(CC(=O)Nc3ccc(Cl)cc3F)c2=O)c1` ; what EC50 value has been reported?
Completion: > 100 µM

Prompt: Which EC50 is reported for this compound? COc1cccc(Cc2cc(C)nn(C(C)C(=O)Nc3ccc(F)cc3)c2=O)c1 (stereo unspecified)
Completion: > 100 µM

Prompt: Look up EC50: `COc1ccccc1Cc1cc(C)nn(CC(=O)Nc2ccc(Cl)cc2)c1=O`
Completion: > 100 µM

Prompt: Can you share its EC50? I mean this compound: `COc1ccc(OC)c(Cc2cc(C)nn(CC(=O)Nc3ccc(Cl)cc3)c2=O)c1`
Completion: 6.31 µM

Prompt: Would you kindly share the measured EC50 for COc1ccccc1Cc1cc(C)nn(C(C(=O)Nc2ccc(Cl)cc2)C2CC2)c1=O (stereo unspecified) ?
Completion: > 100 µM
